A compilation of published Ki results with Human σ1 receptor (Homo sapiens).
Sequence (Q99720 whole entry): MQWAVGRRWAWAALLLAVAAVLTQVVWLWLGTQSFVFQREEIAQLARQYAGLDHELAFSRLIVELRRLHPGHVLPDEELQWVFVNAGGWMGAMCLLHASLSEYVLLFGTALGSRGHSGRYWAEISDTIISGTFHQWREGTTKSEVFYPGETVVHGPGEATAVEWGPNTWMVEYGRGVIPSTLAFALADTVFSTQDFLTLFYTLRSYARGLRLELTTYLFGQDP

# compound, Ki
rows = [
    ("CCN1C[C@]2(CC[C@H](N(C)CC(C)C)CC2)OC2(CC2)C1=O", "< 500 nM"),
]

Give me Ki for each of these compounds, listed below.
1. CCC[C@H](c1nc2ccc(Br)cc2c(=O)n1CC)N1CCCN[C@H](C)C1
2. Cc1nn2c(C3CCCN(Cc4ccc(F)c(F)c4)C3)ccnc2c1-c1ccncc1 (stereo not shown)
3. CCC[C@H](c1nc2ncc(Br)cc2c(=O)n1CC)N1CCCN(CC)CC1

1: 500 to 1000 nM; 2: > 1000 nM; 3: > 1000 nM

---

Literature roundup of Human σ1 receptor (Homo sapiens, UniProt Q99720) data, read-out Ki.

# example entries with known answers
# compound, endpoint.value
rows = [
    ("CCCC(c1nc2ccncc2c(=O)n1CC)N1CCCN(C)CC1 (centres unmarked)", "> 1000 nM"),
    ("CCCC(c1nc2ncc(F)cc2c(=O)n1CC1CC1)N1CCCN(CC)CC1 (centres unmarked)", "> 1000 nM"),
    ("CCC[C@H](c1nc2ccc(Br)cc2c(=O)n1CC)N1CCN(C)C[C@@H](COC)C1", "> 1000 nM"),
    ("Clc1ccc(-c2cc3nccc(C4CCCN(Cc5ccccc5)C4)n3n2)cc1 (centres unmarked)", "> 1000 nM"),
    ("O=C(c1ccccc1)N1CC2(CC2)OC2(CCCN(Cc3ccccc3)C2)C1 (centres unmarked)", "≥ 500 nM"),
    ("O=C1N(c2ccccc2)CC(C2CCN(Cc3ccccc3)CC2)OC12CC2 (centres unmarked)", "< 500 nM"),
    ("Cc1nn2c([C@@H]3CCCN(Cc4ccc(Cl)cc4)C3)ccnc2c1CNC[C@@H]1CCOC(C)(C)C1 (racemic)", "< 500 nM"),
    ("c1ccc(CN2CCCC(c3ccnc4cc(N5CCCC5)nn34)C2)cc1 (centres unmarked)", "500 to 1000 nM"),
    ("Cn1cc(-c2cc3nccc(C4CCCN(Cc5ccccc5)C4)n3n2)cn1 (centres unmarked)", "> 1000 nM"),
    ("c1ccc(CNCc2cc3nccc(C4CCCN(Cc5ccccc5)C4)n3n2)cc1 (centres unmarked)", "> 1000 nM"),
]

List Ki for every entry below, keeping the order given.
1. CCC[C@H](c1nc2ncc(Br)cc2c(=O)n1CC)N1CCN(C)C[C@H](C)C1
2. Cc1nn2c([C@@H]3CCCN(Cc4ccc(Cl)cc4)C3)ccnc2c1CNC[C@H]1CCOC1
3. CCN1C[C@]2(CC[C@H](N(C)CCC(C)C)CC2)OCC1=O
4. CCCC(c1nc2ccc(Br)cc2c(=O)n1CC)N1CCN(C)CC(C)(C)C1 (centres unmarked)
5. CCN1CC2(CCCN(CCC(C)C)C2)OC2(CC2)C1=O (centres unmarked)
6. Cc1nn2c(C3CCCN(Cc4ccc(Cl)cc4)C3)ccnc2c1CN(C)Cc1ccccc1 (centres unmarked)
7. Cc1noc(C)c1-c1c(C)nn2c(C3CCCN(Cc4ccc(Cl)cc4)C3)ccnc12 (centres unmarked)
8. CCN1C[C@]2(CCCN(Cc3ccccc3)CC2)O[C@H](C)C1=O

1. > 1000 nM
2. < 500 nM
3. < 500 nM
4. > 1000 nM
5. ≥ 500 nM
6. < 500 nM
7. > 1000 nM
8. ≥ 500 nM

Each compound below has a reported value. Please supply its Ki.
1. CCC[C@@H](c1nc2ccc(Br)cc2c(=O)n1CC)N1CCCN(C)CC1
2. CC(=O)N1CCC(CNCc2c(C)nn3c([C@@H]4CCCN(Cc5ccc(Cl)cc5)C4)ccnc23)CC1

1: 500 to 1000 nM; 2: < 500 nM
